Test System: HLA-A*03 (Human)
Measurement Conditions: remark: other sources report otherwise
# IC50 per record follows
// return numeric value only (unit: nM, not printed)

Field: example entries. Status: answers known.
Binder: AFTFSPTYK (modifications not checked) [Peptide 20.0130 (HBV pol 655, …)]
IC50 / nM: 42
//
Binder: VSFGVWIR (modifications not checked) [Peptide 26.0023 (HBV X NUC FUS 296, VSFGVWIR)]
IC50 / nM: 2750

Please fill in: IC50 reported for SVVRRAFPH (modifications not checked) [Peptide 20.0131 (HBV pol 524, …)] = 100
